Target: Adenosine receptor A1 (Homo sapiens)
Assay: Displacement of [3H]DPCPX from human adenosine A1 receptor expressed in CHO cells at 10 uM after 60 mins
Format: cell-based
Measured attribute: inhibition (%)
Give the quantity in %, number only.

What does the record list as inhibition for CC1=C(C(=O)OC(C)C)C(c2ccco2)NC(=O)N1 (racemic) ?
18

What does the record list as inhibition for CCOC(=O)C1=C(C)NC(=O)N(C(C)=O)C1c1ccco1 (racemic) ?
19

What does the record list as inhibition for CC1=C(C(=O)Nc2ccccc2)C(c2ccco2)NC(=O)N1 (racemic) ?
24

What does the record list as inhibition for CC1=C(C(=O)OC(C)C)C(c2ccsc2)NC(=S)N1 (racemic) ?
16

What does the record list as inhibition for CCOC(=O)C1=C(C)NC(=O)NC1c1ccco1 (racemic) ?
15

What does the record list as inhibition for CC1=C(C(=O)OC(C)C)C(c2ccco2)NC(=S)N1 (racemic) ?
15

What does the record list as inhibition for CCCC1=C(C(=O)OCC)C(c2ccco2)NC(=O)N1 (racemic) ?
50

What does the record list as inhibition for CC1=C(C(=O)OC(C)C)C(c2ccoc2)NC(=O)N1C (racemic) ?
23

What does the record list as inhibition for CCOC(=O)C1=C(C)NC(=O)NC1c1ccsc1 (racemic) ?
16

What does the record list as inhibition for CCOC(=O)c1c(-c2ccco2)nc(=O)[nH]c1C ?
6

What does the record list as inhibition for CCOC(=O)C1=C(C)N(C)C(=O)NC1c1cccs1 (racemic) ?
2
